# tested_on: SirT2 (Homo sapiens, UniProt Q8IXJ6)
# Sequence (Q8IXJ6 56-356): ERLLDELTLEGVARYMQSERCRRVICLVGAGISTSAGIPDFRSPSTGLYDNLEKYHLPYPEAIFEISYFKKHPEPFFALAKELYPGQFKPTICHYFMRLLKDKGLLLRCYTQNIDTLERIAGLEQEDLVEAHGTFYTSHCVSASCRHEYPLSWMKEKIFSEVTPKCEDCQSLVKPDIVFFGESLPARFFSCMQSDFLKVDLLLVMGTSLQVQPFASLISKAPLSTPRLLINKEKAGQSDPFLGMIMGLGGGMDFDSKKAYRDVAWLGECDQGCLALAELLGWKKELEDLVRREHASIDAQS
pIC50: −log10 of the molar value.
parameter: pIC50

query_smiles | numeric_result
Oc1cc(O)cc(/C=C/c2ccc(O)c(O)c2)c1 | 5.26
